The measured values listed here are drawn from PubChem BioAssay (NCI).

system: NCI-H226 lung; experiment: NCI tumour cell line growth inhibition, 48 h
Readout kind: GI50

Recorded GI50, per entry:
CCOC(=S)SCN1C(=O)c2ccccc2S1(=O)=O
29.2 µM
O=C(O)C(=O)CBr
> 100 µM
O=C(Nc1ccc(I)cc1F)c1cc(I)ccc1O
0.739 µM

Now examine the next entry.
Report GI50 for "COc1ccc(NC(=O)/C=C(C)/C=C/C=C(C)\C=C\C2=C(C)CCCC2(C)C)cc1"
> 100 µM

---

tested on: HOP-62 NSCLC; assay: NCI tumour cell line growth inhibition, 48 h
Entries and their TGI
Please give a number only; it is taken to be in µM.

The cases that follow already have their TGI on record.
Nc1c(-c2nc3ccccc3[nH]2)sc(=S)n1-c1ccc(Cl)cc1
47.3
COc1ccc(C[C@@H]2OC3(C=CC(=O)C=C3)O[C@H]2Cc2ccc(OC)cc2)cc1
3.59

Please find the next molecule below.
Write down TGI measured for item "O=C1c2cc([N+](=O)[O-])sc2C(=O)c2ccsc21"
0.486
